system: TK-10 renal; assay: NCI-60 one-dose screen, 48 h (100 = growth as untreated, 0 = no growth, -100 = all killed); conditions: 10 µM unless noted
About 83,000 compounds went through this panel and 20% of them were active in at least one assay; those are over-represented in the sample as a whole.
recorded-endpoint: growth (%)
// units = %; emit number, no label

The measured growth associated with `CCCCCCCCN(CCCCCCCC)C(=N)c1ccnc2ccccc12` reads -16.4

The measured growth associated with `Nc1ccc(CCCCc2ccccc2)c(Cl)c1` reads 88.7

The measured growth associated with `CCOC(=O)c1ccc(-c2ccc3cc(OC)ccc3c2)nc1C` reads 84.3

The measured growth associated with C=C(C)[C@@H]1CC[C@]2(CN)CC[C@]3(C)[C@H](CC[C@@H]4[C@@]5(C)CCC(N)[C@@](C)(CO)[C@@H]5CC[C@]43C)[C@@H]12 (some centres undefined) reads -86.3

The measured growth associated with O=C1NC(=S)S/C1=C\N1N=C(c2ccc(Cl)cc2)CC1c1ccc(F)cc1 (centres undefined) reads 101

The measured growth associated with `CC1=CC(=O)C(C(C)C)=CC1=Nc1cc(Br)c(O)c(Br)c1` reads 93.2

* * *

system: SW-620 colon; experiment: NCI-60 one-dose screen, 48 h; details: 10 µM unless noted
Compounds without any hit were thinned out: in the full panel of roughly 83,000, 20% have a hit. Calls of active or inactive are those of the source. Rule for the calls: active = growth percent below 10; inactive = the rest.
// one of active, inactive, no free text

These recorded examples may help you get a feel for the data.
[[record]]
compound = "CC(=O)NCC(=O)Nc1ccc(-c2nnc3ccccn23)nc1.CC(=O)NCC(=O)Nc1ccc(-c2nnc3ccccn23)nc1.[Pt+2]"
target = "SW-620 colon"
group = "inactive"

[[record]]
compound = "CN(C)c1ccc2cc(-c3ccc(Cl)c(Cl)c3)c(N)nc2c1"
target = "SW-620 colon"
group = "inactive"

[[record]]
compound = "Cc1cc2c(F)c(Oc3ncnc(Nc4ccc(N5C[C@@H](C)N[C@@H](C)C5)cc4)c3C#N)cc(F)c2[nH]1"
target = "SW-620 colon"
group = "active"

[[record]]
compound = "CC(=[N-])N1CCC[C@@H](Nc2c3ccccc3nc3ccccc23)C1.[Cl][Pt].[NH-]CCC[NH-]"
target = "SW-620 colon"
group = "inactive"

[[record]]
compound = "COc1ccc(Oc2nc(Nc3ccc(N4CCCCC4)nc3)ncc2NC(=O)c2cc(OC)cc(OC)c2)cc1"
target = "SW-620 colon"
group = "inactive"

[[record]]
compound = "COC(=O)c1ccc(CSc2nnc(-c3ccncc3)o2)cc1"
target = "SW-620 colon"
group = "inactive"


Query: // outcome(item) with item = `CN(C)c1ccc(/C=C2\C=C(c3ccccc3)N(CCc3ccccc3)C2=O)cc1`
Reply: inactive

Query: // outcome(item) with item = COC1(CC[C@@H](C)COC2OC(CO)C(O)C(O)C2O)O[C@H]2C[C@H]3[C@@H]4CC=C5C[C@@H](OC6OC(CO)C(OC7OC(C)C(O)C(O)C7O)C(O)C6OC6OC(C)C(O)C(O)C6O)CC[C@]5(C)[C@H]4CC[C@]3(C)[C@H]2[C@@H]1C (some centres not stated)
Reply: active

Query: // outcome(item) with item = `N#C/C(=C\c1ccc(Br)cc1)n1nnc2cc(Cl)c(Cl)cc21`
Reply: inactive

Query: // outcome(item) with item = `CCn1c(Sc2nnc(Nc3ccccc3)s2)nc2c1c(=O)n(C)c(=O)n2C`
Reply: inactive

Query: // outcome(item) with item = `COc1ccc(/C(C)=C(\c2ccc(Cl)cc2)c2ccc(OCCN3CCCCC3)cc2)cc1F`
Reply: inactive

* * *

Entries and their growth
system: SF-268 CNS; experiment: NCI-60 one-dose screen, 48 h (100 = growth as untreated, 0 = no growth, -100 = all killed); conditions: 10 µM unless noted
Compounds without any hit were thinned out: in the full panel of roughly 83,000, 20% have a hit.
// units = %; emit number, no label

[[record]]
compound = "COc1cc2cc(Oc3ccc(NC(=O)Nc4cc(C(F)(F)F)cc(C(F)(F)F)c4)cc3)c(C)nc2cc1OCCN1CCCCC1"
unit_spec = "%"
quantitative_result = -49.3

[[record]]
compound = "OC(CBr)c1ccnc2ccccc12 (stereo not given)"
unit_spec = "%"
quantitative_result = 100

[[record]]
compound = "NC(=O)CC1(O)C=C(Br)C(=O)C(Br)=C1"
unit_spec = "%"
quantitative_result = 89.3

[[record]]
compound = "Cc1ccc(S(=O)(=O)Nc2sccc2-c2nc(-c3ccccc3)no2)cc1"
unit_spec = "%"
quantitative_result = 92.4


Please look at the following compound next.
The measured growth associated with `CCOC(=O)c1c2c(c(C)n1C)-c1nn(Cc3ccc(OC)cc3)cc1CC2` reads 103

* * *

test system: MCF7 breast; assay: NCI-60 one-dose screen, 48 h; conditions: 10 µM unless noted
This is part of a sample that, as a whole, favours compounds with a hit. Of some 83,000 tested, about 20% had one in any assay. The source made the active and inactive calls. How the source made its calls: active means growth percent below 10; inactive means the rest.
// one of Y = active, N = inactive, no free text

[[record]]
compound = "O=C1NCC(=O)N(Cc2ccco2)[C@H]1Cc1ccccc1"
group = "N"

[[record]]
compound = "N#Cc1c(N)nc2c(nnn2-c2cccc(Br)c2)c1N"
group = "N"


Query: // outcome(item) with item = `CC(C)OC(=O)NNC(=O)c1ccncc1`
Reply: N

Query: // outcome(item) with item = `CNC1(C#N)CCN(Cc2ccccc2)CC1`
Reply: N

Query: // outcome(item) with item = Cc1nn(-c2ccccc2)c2c1C(c1ccc([N+](=O)[O-])cc1)C(C#N)=C(N)O2 (stereo unspecified)
Reply: N

Query: // outcome(item) with item = `COc1cc2c(cc1OC)-c1ccc3cc4c(cc3c1N(CCN(C)C)C2)OCO4`
Reply: Y

Query: // outcome(item) with item = `O=C1C2=C(CCN(Cc3ccccc3)C2)N2CCN=C2N1Cc1ccc(C(F)(F)F)cc1`
Reply: N

Query: // outcome(item) with item = `COc1cc(-c2cccc([N+](=O)[O-])c2)c(-c2nc(-c3ccccc3)c(-c3ccccc3)n2C2CC2)cc1OC`
Reply: N

Query: // outcome(item) with item = `N#Cc1cnn2c(-c3ccc(Cl)cc3)nc(NCCc3ccccc3)nc12`
Reply: N

Query: // outcome(item) with item = O=C(O)C1C[C@](O)(c2ccc(F)cc2)[C@@H](c2ccc(F)cc2)O1 (stereo partly specified)
Reply: N

Query: // outcome(item) with item = `O=C1Nc2ccccc2/C1=N/N=C/c1c[nH]c2ccccc12`
Reply: N

Query: // outcome(item) with item = `COc1ccc(OC)c(/C=C2\COc3ccc(O)c(O)c3C2=O)c1`
Reply: N

Query: // outcome(item) with item = `CCOc1cccnc1/C=N/NC(N)=S`
Reply: N

Query: // outcome(item) with item = `CCCCS(=O)(=O)Oc1ccc(-c2nc(C)c(C(=O)OCC)s2)cc1C=O`
Reply: N

Query: // outcome(item) with item = `CN(C)S(=O)(=O)n1cnc([C@@H]2[C@@H]3C(=O)OC[C@@H]3C[C@]23N=CN(Cc2ccccc2)C3=O)c1`
Reply: N

Query: // outcome(item) with item = `CN(C)c1ccc(/C=C/c2c(F)cccc2F)cc1`
Reply: N

Query: // outcome(item) with item = `N#Cc1cccc(-c2nc3ccccn3c2NCCN2CCOCC2)c1`
Reply: N

Query: // outcome(item) with item = `COc1ccc(/C=C2\COc3ccc(O)cc3C2=O)c(OC)c1`
Reply: N

Query: // outcome(item) with item = `CCN(CC)CCOc1ccc(/C(=C(\C)c2ccc(F)c(OC)c2)c2ccc(Cl)cc2)cc1`
Reply: Y

Query: // outcome(item) with item = `Fc1ccc(Nc2ccc3cc(OCCCN4CCOCC4)ccc3n2)cc1F`
Reply: N

Query: // outcome(item) with item = COc1cc(C2CC(=O)Nc3n[nH]c(-c4ccccc4)c32)cc(OC)c1OC (stereo unspecified)
Reply: N

Query: // outcome(item) with item = CN1C[C@@H](c2ccc(Cl)cc2)[C@]2(NC(=S)N(c3ccc(F)c(Cl)c3)C2=O)[C@@]12C(=O)NC1C=CC(Cl)=C[C@H]12 (stereo partly specified)
Reply: N

* * *

test system: DU-145 prostate; assay: NCI-60 one-dose screen, 48 h; conditions: 10 µM unless noted
This is part of a sample that, as a whole, favours compounds with a hit. Of some 83,000 tested, about 20% had one in any assay. Active and inactive are the calls of the source. The calls were made as follows: active = growth percent below 10; inactive = the rest.
// one of active, inactive, no free text

Query: // outcome(item) with item = C=C1c2c(C)nn(-c3ccc(O)cc3)c2N(C)C23C[C@@H]1C1(C)c4c(C)nn(-c5ccc(O)cc5)c4N(C)C(C)(C[C@H]12)C3 (some centres undefined)
Reply: inactive

Query: // outcome(item) with item = `Cc1cc(=O)c2cc3nc(-c4cccnc4)oc3c(Br)c2o1`
Reply: inactive

Query: // outcome(item) with item = `COc1ccc(-c2nc3sc4c(c3c(=O)[nH]2)CCCC4)c2ccccc12`
Reply: active

Query: // outcome(item) with item = OC(COc1cccc2ccccc12)CN1CCN(c2ccccc2)CC1 (centres undefined)
Reply: inactive
